Reported mortality at 20 µg/mL values for a set of molecules
System: Myzus persicae
test description: Insecticidal activity against Myzus persicae (green peach aphid) assessed as mortality at 25 degC after 72 hr at 20 mg/L
Format: functional
Lab book: enter the figure in %, no units written.

Examples from the recorded data:
molecule: CCN(Cc1ccc(Cl)nc1)C1=C([N+](=O)[O-])CN(CCCC(=O)OCCCCO)CN1C
assay endpoint: mortality at 20 µg/mL
test result: 70
--
molecule: CCN(Cc1ccc(Cl)nc1)C1=C([N+](=O)[O-])CN(CCC(=O)OCCCCCO)CN1C
assay endpoint: mortality at 20 µg/mL
test result: 50
--
molecule: CCN(Cc1ccc(Cl)nc1)C1=C([N+](=O)[O-])CN(CC(=O)OCCCCO)CN1C
assay endpoint: mortality at 20 µg/mL
test result: 33
--
molecule: CCN(Cc1ccc(Cl)nc1)C1=C([N+](=O)[O-])CN(C(C(=O)OCCO)C(C)C)CN1C (configuration not stated)
assay endpoint: mortality at 20 µg/mL
test result: 58
--
molecule: CCN(Cc1ccc(Cl)nc1)C1=C([N+](=O)[O-])CN(CC(=O)OCCO)CN1C
assay endpoint: mortality at 20 µg/mL
test result: 58
--
molecule: CCN(Cc1ccc(Cl)nc1)C1=C([N+](=O)[O-])CN(CC(=O)OCCCCCO)CN1C
assay endpoint: mortality at 20 µg/mL
test result: 25

Now for another entry.
Lab book: mortality at 20 µg/mL of CCN(Cc1ccc(Cl)nc1)C1=C([N+](=O)[O-])CN(C(C(=O)OCCO)c2ccc(Cl)cc2)CN1C (configuration not stated) noted as 25

###

Tested on: Myzus persicae
test description: Insecticidal activity against Myzus persicae (green peach aphid) assessed as mortality at 25 degC after 72 hr at 20 mg/L
Format: functional
Reported mortality at 20 µg/mL values for a set of compounds
Lab book: enter the figure in %, no units written.

Examples from the recorded data:
compound: CCN(Cc1ccc(Cl)nc1)C1=C([N+](=O)[O-])CN(C(C)C(=O)OCCO)CN1C (single isomer, unassigned; (+))
assay endpoint: mortality at 20 µg/mL
unit text: %
test result: 40

compound: CCN(Cc1ccc(Cl)nc1)C1=C([N+](=O)[O-])CN(CCCC(=O)OCCCCCCO)CN1C
assay endpoint: mortality at 20 µg/mL
unit text: %
test result: 10

compound: CCN(Cc1ccc(Cl)nc1)C1=C([N+](=O)[O-])CN(C(Cc2ccccc2)C(=O)OCCO)CN1C (configuration not stated)
assay endpoint: mortality at 20 µg/mL
unit text: %
test result: 15

Lab book: mortality at 20 µg/mL of CCN(Cc1ccc(Cl)nc1)C1=C([N+](=O)[O-])CN(CC(=O)OCCCO)CN1C noted as 50

Lab book: mortality at 20 µg/mL of CCN(Cc1ccc(Cl)nc1)C1=C([N+](=O)[O-])CN(C(CC(C)C)C(=O)OCCO)CN1C (configuration not stated) noted as 100

Lab book: mortality at 20 µg/mL of CCN(Cc1ccc(Cl)nc1)C1=C([N+](=O)[O-])CN(C(Cc2ccc(O)cc2)C(=O)OCCO)CN1C (single isomer, unassigned; (+)) noted as 10

Lab book: mortality at 20 µg/mL of CCC(C)C(C(=O)OCCO)N1CC([N+](=O)[O-])=C(N(CC)Cc2ccc(Cl)nc2)N(C)C1 (single isomer, unassigned; (+)) noted as 95
